Provenance of the data: paper PMC9221290

# Tested on: Mtb H37Ra ITM-M006710 (ATCC 9431)
# methodSummary: Antimycobacterial microdilution broth assay (resazurin), Mtb H37Ra
# Assay type: cell-based, Mycobacterium tuberculosis
# conditionContext: Mycobacterium tuberculosis, calculated from MIC (µg/mL) and MW; read-out: MIC Mtb H37Ra
For each entry below, report its MIC value.

// query MIC value for entry COc1cc2c3c(c1O)-c1c(ccc(OC)c1OC)C[C@@H]3N(C)CC2
≥ 1470 µM

Which MIC is reported for this compound? c1cc2c(c3c1C[C@H]1c4cc5c(cc4CCN1C3)OCO5)OCO2
≥ 387 µM

Which MIC value belongs to COc1ccc2c(c1OC)CN(C)CCc1cc3c(cc1C(=O)C2)OCO3 ?
≥ 678 µM

Which MIC value belongs to COc1ccc2c(c1O)-c1c(OC)c(OC)cc3c1[C@H](C2)N(C)CC3 ?
≥ 1430 µM
